- tested.target: human RXFP1 (Homo sapiens)
- Construct: expressed in transfected cells
- measurement.description: RXFP1 cAMP assay (hRXFP1 HEK293 cAMP assay, HTRF)
- Type: cell-based
- protocol.conditions: HEK293 cells stably expressing human RXFP1, 30 min at room temperature, read-out: cAMP hRXFP1 HEK293 Assay EC50
pEC50: −log10 of the molar value.
Label rule, in plain words: pEC50 of 8 and up is Criterion met, under 8 is Criterion not met.

Q) Reported pEC50 reaches at least 8 for `COc1ccc(C2=NO[C@H]3C[C@H](CO)CN23)cc1C(=O)N[C@H]1[C@@H](C(=O)Nc2ccc(F)c(C(F)(F)F)c2)[C@H]2CC[C@@H]1/C2=C\CC(C)C` ?
A) Criterion met

Q) Reported pEC50 reaches at least 8 for COc1ccc(-c2cc(C(=O)O)ccc2F)cc1C(=O)N[C@@H]1C2CCC(/C2=C/c2cn(Cc3ccccc3)nn2)[C@@H]1C(=O)Nc1ccc(F)c(C(F)(F)F)c1 (some centres unmarked) ?
A) Criterion not met

Q) Reported pEC50 reaches at least 8 for COc1ccc(C2=NOC3CCCC23)cc1C(=O)N[C@@H]1C2CCC(/C2=C/C2CC2)[C@@H]1C(=O)Nc1ccc(F)c(C(F)(F)F)c1 (some centres unmarked) [Example 439] ?
A) Criterion not met

Q) Reported pEC50 reaches at least 8 for COc1ccc(-c2cc(C(NC(C)=O)C(=O)O)ccc2F)cc1C(=O)N[C@@H]1C2CCC(/C2=C/C2CC2)[C@@H]1C(=O)Nc1ccc(F)c(C(F)(F)F)c1 (some centres unmarked) [Example 182] ?
A) Criterion met

Q) Reported pEC50 reaches at least 8 for COc1ccc(C2=NOC3CC(C)(CO)CC23)cc1C(=O)N[C@H]1[C@@H](C(=O)Nc2ccc(F)c(C(F)(F)F)c2)[C@H]2CC[C@@H]1/C2=C\C1CCCC1 (some centres unmarked) [compound 749] ?
A) Criterion met

----------
- tested.target: human RXFP1 (Homo sapiens)
- Construct: expressed in transfected cells
- Sequence (Q9HBX9 1-757): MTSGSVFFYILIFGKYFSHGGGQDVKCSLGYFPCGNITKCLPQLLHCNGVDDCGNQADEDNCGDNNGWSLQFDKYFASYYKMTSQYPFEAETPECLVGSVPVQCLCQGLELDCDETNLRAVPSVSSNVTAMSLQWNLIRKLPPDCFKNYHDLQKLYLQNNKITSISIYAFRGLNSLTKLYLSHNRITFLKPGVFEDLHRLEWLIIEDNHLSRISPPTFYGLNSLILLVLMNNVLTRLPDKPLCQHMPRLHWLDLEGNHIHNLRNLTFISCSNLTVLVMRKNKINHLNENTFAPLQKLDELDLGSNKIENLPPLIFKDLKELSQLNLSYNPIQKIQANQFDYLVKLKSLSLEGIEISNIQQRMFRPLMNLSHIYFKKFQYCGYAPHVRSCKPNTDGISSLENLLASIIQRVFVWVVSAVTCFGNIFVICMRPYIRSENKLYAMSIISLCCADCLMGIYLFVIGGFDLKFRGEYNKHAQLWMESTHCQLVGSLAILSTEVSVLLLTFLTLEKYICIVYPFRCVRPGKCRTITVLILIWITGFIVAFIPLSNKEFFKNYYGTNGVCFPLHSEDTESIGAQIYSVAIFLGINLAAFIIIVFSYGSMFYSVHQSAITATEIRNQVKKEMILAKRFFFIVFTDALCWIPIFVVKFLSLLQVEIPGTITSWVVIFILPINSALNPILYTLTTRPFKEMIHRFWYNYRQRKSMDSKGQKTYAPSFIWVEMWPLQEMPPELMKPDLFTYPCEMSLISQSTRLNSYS
- measurement.description: RXFP1 cAMP assay (hRXFP1 HEK293 cAMP assay, HTRF)
- Type: cell-based
- protocol.conditions: HEK293 cells stably expressing human RXFP1, 30 min at room temperature, read-out: cAMP hRXFP1 HEK293 Assay EC50
Can you tell me log10 of EC50 for the items I'm about to list?
Note: values are log10 of EC50 expressed in nM.

Q) Requested read-out: log10 of EC50. Entry: COc1cc(F)c(F)cc1C(=O)N[C@@H]1C2CCC(/C2=C/C=C/CCO)[C@@H]1C(=O)Nc1ccc(F)c(C(F)(F)F)c1 (stereo partly shown) [compound 67]
A) 3.23

Q) Requested read-out: log10 of EC50. Entry: COc1ccc(C2=NOC3CC(C)(CO)CC23)cc1C(=O)N[C@H]1[C@@H](C(=O)N[C@H](C)C2(C)CC2)[C@H]2CC[C@@H]1/C2=C\c1csc(C(F)(F)F)n1 (stereo partly shown) [compound 915]
A) 0.60

Q) Requested read-out: log10 of EC50. Entry: COC(=O)C1CC2ON=C(c3ccc(OC)c(C(=O)N[C@H]4[C@@H](C(=O)Nc5ccc(F)c(C(F)(F)F)c5)[C@H]5CC[C@@H]4/C5=C\C4CC4)c3)C2C1 (stereo partly shown) [compound 512]
A) 1.20

Q) Requested read-out: log10 of EC50. Entry: O=C(N[C@H]1[C@@H](C(=O)Nc2ccc(F)c(C(F)(F)F)c2)[C@H]2CC[C@@H]1/C2=C\C1CC1)c1cc(C2=NOC3CC(CO)CC23)cc(F)c1OCC1CC1 (stereo partly shown) [compound 794]
A) 0.51

Q) Requested read-out: log10 of EC50. Entry: COc1cc(C)c(C2=NOC3COCC23)cc1C(=O)N[C@H]1[C@@H](C(=O)Nc2ccc(F)c(C(F)(F)F)c2)[C@H]2CC[C@@H]1/C2=C\C1CC1 (single isomer, unassigned) [compound 686]
A) 2.81

Q) Requested read-out: log10 of EC50. Entry: COc1ccc(-c2cc(C(=O)O)ccc2F)cc1C(=O)N[C@@H]1C2CCC(/C2=C/C2CC2)[C@@H]1C(=O)NC1CCOCC1 (stereo partly shown) [compound 204]
A) 3.51

Q) Requested read-out: log10 of EC50. Entry: COc1ccc(-c2cn(C)nc2C)cc1C(=O)N[C@H]1[C@@H](C(=O)Nc2ccc(F)c(C(F)(F)F)c2)[C@H]2CC[C@@H]1C2=C(C)C [compound 92]
A) 2.58

Q) Requested read-out: log10 of EC50. Entry: COc1ccc(-c2cc(C(OC(=O)NC34CC(C3)C4)C(F)(F)F)ccc2F)cc1C(=O)N[C@H]1[C@@H](C(=O)Nc2ccc(F)c(C(F)(F)F)c2)[C@H]2CC[C@@H]1/C2=C\C1CC1 (single isomer, unassigned) [Example 206]
A) 0.00

Q) Requested read-out: log10 of EC50. Entry: CNC(=O)OC(c1ccc(F)c(-c2ccc(OC)c(C(=O)N[C@@H]3C4CCC(/C4=C/C4CC4)[C@@H]3C(=O)Nc3ccc(F)c(C(F)(F)F)c3)c2)c1)C(F)(F)F (stereo partly shown) [compound 212]
A) 0.00

Q) Requested read-out: log10 of EC50. Entry: COc1ccc(-c2cc([C@H](OC(=O)NC3CCC3)C(F)(F)F)ccc2F)cc1C(=O)N[C@@H]1C2CCC(/C2=C/C2CC(F)(F)C2)[C@@H]1C(=O)Nc1ccc(F)c(C(F)(F)F)c1 (stereo partly shown) [compound 359]
A) 0.30

All values here come from patent US20250221966A1.
